Ref: PubChem BioAssay (NCI)

Test system: MCF7 breast
Test: NCI tumour cell line growth inhibition, 48 h
# TGI values compiled below

CC(=O)OC(C)(C)CCC(=O)[C@](C)(O)[C@H]1[C@H](O)C[C@@]2(C)[C@@H]3CCc4c(cc(OC5OC(CO)C(O)C(O)C5O)c(O)c4C)C3(C)C(=O)C[C@]12C (stereo not given in full) : > 100 µM

Sample "OCCn1cnc2c(SCc3ccccc3)ncnc21" ; TGI observed: > 100 µM

Reported TGI of CC(C)(C)c1[nH]nc2c1C(c1cc3ccccc3[nH]c1=O)Nc1cc(C(=O)OCc3ccccc3)ccc1N2 (stereo not given) : > 100 µM

TGI for "Cc1n(Cc2ccccc2)nc2sc(N)n[n+]12" is > 100 µM

---

# TGI values compiled below
System: MALME-3M melanoma
Test: NCI tumour cell line growth inhibition, 48 h

// below: answered molecules
COC(=N)c1c(N)[n+]([O-])c2ccc(F)cc2[n+]1[O-] : > 100 µM
COc1cccc(NC(=O)CC(=O)N2N=C(n3ccc4ccccc43)CC2c2ccccc2)c1 (stereo unspecified) : > 100 µM
c1ccc(CSC2(SCc3ccccc3)CCCCC2)cc1 : > 10 µM
c1ccc([I+]c2ccccc2)cc1 : > 100 µM
Cc1[nH]c(=O)nc(Nc2ccc(Cl)cc2)c1C(=O)N1CCN(CCO)CC1 : > 100 µM
Cc1nc2sccn2c1/C=C1/C(=O)Nc2cccc(Cl)c21 : > 100 µM
Cc1cnc2sn(-c3ccc(Br)cc3)c(=O)c2c1 : 43.6 µM
OC1CSc2nc3ccccc3n2C1 (stereo unspecified) : > 100 µM
CN(C)CC1CCC2=C(C1=O)C(c1ccc(Cl)c(Cl)c1)C1=C(CCC(CN(C)C)C1=O)O2 (stereo unspecified) : 29.5 µM
C=C1C[C@H](O)[C@H](Br)C(C)(C)C12CCC(C)(Cl)C(Br)C2 (stereo partly specified) : 16.6 µM

Now look at this entry.
The measured TGI associated with "Cc1cccc(N/C(Sc2ccccc2)=C(/C(Cl)=C(Cl)Cl)[N+](=O)[O-])c1" reads 30.2 µM

---

System: HOP-62 NSCLC
Assay: NCI tumour cell line growth inhibition, 48 h
observationType: TGI

Answered examples (3):
O=c1cc(-c2cccnc2)[nH]c2cc3c(cc12)OCO3 : 58.8 µM
COc1ccc2nc3cc(Cl)ccc3c(SCC(=O)Nc3ccccc3-c3ccccc3NC(=O)CSc3c4ccc(Cl)cc4nc4ccc(OC)cc34)c2c1 : > 100 µM
C=C1C[C@H](O)[C@H](Br)C(C)(C)C12CCC(C)(Cl)C(Br)C2 (stereo partly specified) : 12.2 µM

TGI recorded for this molecule, COc1ccc(C2=C(c3ccc(OC)c(OC)c3)C(=O)N3CCCC3C2)cc1 (stereo unspecified) , is > 100 µM

The measured TGI associated with CN1CC2CN(Cc3ccccc3)CCN2c2cccnc21 (stereo unspecified) reads > 100 µM

Record "COc1ccc(C(=O)/C=C/c2cccc(Nc3ccnc4cc(Cl)ccc34)c2)cc1" , field TGI: 3.99 µM

The value of TGI measured for the molecule "Cc1nn(-c2ccc([N+](=O)[O-])cc2)c2ncnc(N/N=C/c3ccccc3O)c12" turned out to be 3.29 µM

---

System: NCI/ADR-RES ovarian
Assay: NCI tumour cell line growth inhibition, 48 h
Recorded TGI for the following molecules

Recorded result, CCN1C(=O)N(CC)C2C1NN=c1s/c(=C\c3ccccn3)c(=O)n12 (centres undefined) , TGI: > 100 µM

# TGI (molecule: "Cc1nn(C)c(COc2ccc(N3CCN(S(=O)(=O)N(C)C)CC3)cc2)c1-c1cccc2c(CCCOc3cccc4ccccc34)c(C(=O)O)n(CCN3CCOCC3)c12" ) is > 100 µM

The molecule listed as "Cc1cccc(N/C(Sc2ccccc2)=C(/C(Cl)=C(Cl)Cl)[N+](=O)[O-])c1" has a reported TGI of 39.1 µM

# TGI of "CC[C@@]1(O)C(=O)OCc2c1cc1n(c2=O)Cc2c-1nc1ccccc1c2/C=N/NC(=O)c1ccc(N)cc1" = > 37.8 µM

---

Tested on: HOP-92 NSCLC
Experiment: NCI tumour cell line growth inhibition, 48 h
observationType: GI50

// field: GI50; key: "COc1ccc2nc3cccc([N+](=O)[O-])c3c(NCCCO)c2c1" ; value = 15.4 nM

In plain terms, "COc1cc(/C=C/C(=O)c2ccc(F)cc2)ccc1OCCCN1CCN(CC(=O)Nc2ccc(Cl)cc2C(=O)c2ccccc2Cl)CC1" has a documented GI50 of 1380 nM

Measured GI50, "COc1cc(OC)c(C(=O)/C=C/c2cccc(C#N)c2)c(OC)c1" : 701 nM

For record CC1=C(CCC(C)NCc2ccc(OCCCN3CCCCC3)cc2)C(C)(C)CCC1 (centres undefined) the listed GI50 is 1260 nM

# GI50 of CC(C)(C)c1[nH]nc2c1C(c1cc3ccccc3[nH]c1=O)Nc1cc(C(=O)OCc3ccccc3)ccc1N2 (centres undefined) = 1350 nM

Value of measured GI50 for the entry "NCCN.O=C([O-])CN1CCOCC1.[OH-].[Pt+4]" : > 100000 nM

Field GI50 (entry COc1ccc(C2=CC(c3ccc(OC)cc3Br)N3C=CSC3=N2)cc1 (centres undefined) ) reads 5780 nM

Entry CN(C)CC1CCC2=C(C1=O)C(c1ccc(Cl)c(Cl)c1)C1=C(CCC(CN(C)C)C1=O)O2 (centres undefined) , GI50 reported as 11300 nM

Measured GI50, "COC(=O)c1cc2ccccc2c2c3c(ccc12)OCO3" : 17400 nM

Reported GI50 ( CCN1C(=O)N(CC)C2C1NN=c1s/c(=C\c3ccccn3)c(=O)n12 (centres undefined) ) = 2370 nM

The recorded GI50 for "CN(C)c1ccc(C(=NO)c2ccc(N(C)C)cc2)cc1" is 15200 nM

Item: "Cc1cnc(CNC(=O)c2c(=O)c3ccc(N4CCCN(C)CC4)nc3n3c2sc2ccccc23)cn1" | GI50: 16400 nM

Item: "COc1ccccc1CNCCCN1C(=O)c2ccc3c4c(ccc(c24)C1=O)C(=O)N(CCCN)C3=O" | GI50: 2400 nM

For record CC(=O)O[C@H]1CCC2[C@@H]3CCC4c5nonc5CC[C@]4(C)C3CC[C@@]21C (some centres undefined) the listed GI50 is > 100000 nM

---

System: PC-3 prostate
Assay: NCI tumour cell line growth inhibition, 48 h
observationType: TGI

Below, each entry is followed by its recorded TGI result.
CCO/C=N/C1=C(C#N)SC2=N/C(=C\c3ccccc3)C(=O)N21 : > 100 µM
Cc1ccc(C(=O)N/N=C(\N=Nc2ccc(C(=O)O)cc2)c2ccc(N(CCC#N)CCC#N)cc2C)cc1 : > 100 µM
NC(=O)c1ccc(-c2nc(-c3ccc4c(c3)OCO4)c(-c3ccccn3)[nH]2)cc1 : > 100 µM

Log: PC-3 prostate, molecule OC1CSc2nc3ccccc3n2C1 (stereo unspecified) , TGI = > 100 µM

Entry "CCOC(=O)c1cccc(NC(=O)CI)c1" , PC-3 prostate data, TGI value: 2.39 µM

Response field TGI (PC-3 prostate) for item "ON=C(CC(O)(C(F)(F)Cl)C(F)(F)Cl)CC(O)(C(F)(F)Cl)C(F)(F)Cl" : > 10 µM

---

System: EKVX NSCLC
Experiment: NCI tumour cell line growth inhibition, 48 h
observationType: TGI (µM)
Supply the numeric figure in µM, leaving out any unit text.

Cc1nn(C)c(COc2ccc(N3CCN(S(=O)(=O)N(C)C)CC3)cc2)c1-c1cccc2c(CCCOc3cccc4ccccc34)c(C(=O)O)n(CCN3CCOCC3)c12 : 15

Please find the next compound below.
Data point: "NS(=O)(=O)c1ccc(/C=C/c2ccc(O)cc2)cc1" ; TGI = 69.8

---

Test system: HCT-15 colon
Test: NCI tumour cell line growth inhibition, 48 h
Item-by-item account of GI50

Reference set (5 entries):
CN(C)CC1CCC2=C(C1=O)C(c1ccc(Cl)c(Cl)c1)C1=C(CCC(CN(C)C)C1=O)O2 (configuration not stated) : 8.75 µM
Cc1cnc(CNC(=O)c2c(=O)c3ccc(N4CCCN(C)CC4)nc3n3c2sc2ccccc23)cn1 : 1.03 µM
COC(=O)C1=C(C)NC(C)=C(C(=O)OCC(C)C)C1c1ccccc1[N+](=O)[O-] (configuration not stated) : 3.88 µM
COc1ccc(C2=CC(c3ccc(OC)cc3Br)N3C=CSC3=N2)cc1 (configuration not stated) : 1.49 µM
CC(C)(C)c1[nH]nc2c1C(c1cc3ccccc3[nH]c1=O)Nc1cc(C(=O)OCc3ccccc3)ccc1N2 (configuration not stated) : 4.65 µM

Documented GI50 of "CCSc1nc(SCC)c2c(-c3ccc(OC)c(OC)c3)c(C#N)c(SCC)nc2n1" : 24.6 µM

The compound "COc1cc([N+](=O)[O-])c(OC)cc1-c1nc2sccn2c1/C=N/N=C(N)N" showed GI50 equal to 26.3 µM
